Tested on: SF-295
test protocol: NCI tumour cell line growth inhibition, 48 h
Active and inactive are the calls of the source. Rule as the data show it: active = GI50 up to about 1.1 µM and inactive = higher.
Kindly state GI50 for each of the entries shown.

Recorded results for 3 molecules are shown here.
CC(C)(C)OC(=O)N1CC(COS(C)(=O)=O)c2ccc(O)cc21 (stereo not drawn)
2.91 µM (inactive)
Oc1cc(-c2ccccc2)cn2c1nc1ccccc12
6 µM (inactive)
Nc1ncnc2c1ncn2C1C=CC(CP(=O)(O)O)C1 (stereo not drawn)
> 100 µM (inactive)

For every item in the list below, what is its measured GI50?
1. COc1c(Br)cc2c(c1OC)C(Br)CCC(Br)(Br)C2=O (stereo not drawn)
2. O=C(O)CNc1cc(-c2ccccc2)nc(NCC(=O)O)n1
3. C[C@@H](c1ccccc1)C(CC#N)[C@H]1CCC[C@]1(O)C#Cc1ccc2c(c1)OCO2 (stereo partly drawn)
4. CC(=O)O[C@]12CCCCCC1C1(O)C(O)CCC[C@H]12 (stereo partly drawn)
5. CCCCCCCCC/C=C1/CC(CO)(COC(=O)C2CCCCC2)OC1=O (stereo not drawn)

result:
["2.52 µM (inactive)", "> 100 µM (inactive)", "18.1 µM (inactive)", "> 100 µM (inactive)", "> 100 µM (inactive)"]
